The origin of these recorded values is ChEMBL document CHEMBL3137667.

Hepatotoxicity (cytolytic) values for the compounds below.
- CONDITIONS USED: human;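 note: human cytolytic liver injury, shown by histopathology or by a ratio above 5 of peak ALT or AST elevation to alkaline phosphatase elevation, value counts indexed references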
Form rule: numeric answer, no unit written next to it.

Task item: For COC(F)(F)C(Cl)Cl , what is its reported Hepatotoxicity (cytolytic)?
Reply: 27

Task item: Tell me the measured Hepatotoxicity (cytolytic) of CC1CN(c2cc3c(cc2F)c(=O)c(C(=O)O)cn3-c2ccc(F)cc2F)CCN1 (stereo unspecified) , please.
Reply: 0

Task item: Given the entry N#CN [CYANAMIDE] , report its measured Hepatotoxicity (cytolytic).
Reply: 0

Task item: Fill in: Hepatotoxicity (cytolytic) of C[C@@H]1[C@H](O)[C@@H](C)/C=C/C=C/C=C/C=C/C=C/C=C/C=C/[C@H](O[C@@H]2O[C@H](C)[C@@H](O)[C@H](N)[C@@H]2O)C[C@@H]2O[C@](O)(C[C@@H](O)C[C@@H](O)[C@H](O)CC[C@@H](O)C[C@@H](O)CC(=O)O[C@H]1C)C[C@H](O)[C@H]2C(=O)O is ___
Reply: 6

Task item: For the compound shown here, CC1(C)S[C@@H]2[C@H](NC(=O)[C@H](N)c3ccc(O)cc3)C(=O)N2[C@H]1C(=O)O.O=C(O)[C@H]1/C(=C/CO)O[C@@H]2CC(=O)N21 , give the reported Hepatotoxicity (cytolytic).
Reply: 21

Task item: Need Hepatotoxicity (cytolytic) of NCCCC[C@H](N[C@@H](CCc1ccccc1)C(=O)O)C(=O)N1CCC[C@H]1C(=O)O [LISINOPRIL ANHYDROUS] , thanks.
Reply: 2

Task item: # input compound: Oc1c(Cl)c(Cl)c(Cl)c(Cl)c1Cl ; wanted: its Hepatotoxicity (cytolytic)
Reply: 0

Task item: I have this compound here, NCC(CC(=O)O)c1ccc(Cl)cc1 (stereo unspecified) , and I need its recorded Hepatotoxicity (cytolytic).
Reply: 1

Task item: Fill in the blank: the reported Hepatotoxicity (cytolytic) of O=C(O)C(=O)O is ____.
Reply: 0
